# tested system: Acro S1 spike protein (SARS-CoV-2) (SARS-CoV-2, UniProt P0DTC2 16-685)
# procedure text: SPR (Carterra LSA); […]; 1:1 model; […]

# binder, koff / s⁻¹
rows = [
    ("Antibody 1-7 (Fc fusion) EVQLVESGGGLVQPGGSLRLSCAASGGTFSSIGMGWFRQAPGKEREFVAAISWDGGATAYADSVKGRFTISADNSKNTVYLQMNSLKPEDTAVYYCAKEDVGKPFDWGQGTLVTVSS", 0.00047),
    ("Antibody 1-17 (Fc fusion) EVQLVESGGGLVQPGGSLRLSCAASGRTIVPYTMGWFRQAPGKEREEVAAISTGGGGTYYADSVKGRFTISADNSKNTAYLQMNSLKPEDTAVYYCAVDGPFGWGQGTLVTVSS", 0.0017),
    ("Antibody 1-15 (Fc fusion) EVQLVESGGGLVQPGGSLRLSCAASGGIFSDMFMGWFRQAPGKEREFVATIDWSGDTAFYADSVKGRFTISADNSKNTAYLQMNSLKPEDTAVYYCAVDLSGDAVYDWGQGTLVTVSS", 0.00094),
]
